System: Plasmodium falciparum
Assay: Antiparasitic activity against chloroquine-sensitive Plasmodium falciparum 3D7
Type: functional, organism-based

- molecule: "N=C(N)NCCC[C@H]1NCCc2c1[nH]c1cc(Br)ccc21"
  units of measure: "µM"
  IC50: 3.5

----------
Reported values of IC50 for individual entries
Test system: Plasmodium falciparum
Assay: Antiparasitic activity against Plasmodium falciparum K1 IEF stage forms incubated for 72 hrs by Alamar Blue staining based fluorometric assay
Conditions: K1, 72 h
endpoint label: IC50 (µM)

- molecule: "O=C1c2ccccc2C(=O)N1CCCC1NCCc2c1[nH]c1ccccc21 (stereo not given)"
  tgt: "Plasmodium falciparum"
  units of measure: "µM"
  recorded number: 14
- molecule: "N=C(N)NCCCCc1nccc2c1[nH]c1ccccc12"
  tgt: "Plasmodium falciparum"
  units of measure: "µM"
  recorded number: 6.4
- molecule: "N=C(N)NCCCc1nccc2c1[nH]c1ccccc12"
  tgt: "Plasmodium falciparum"
  units of measure: "µM"
  recorded number: 7.8
- molecule: "N=C(N)NCCCCc1nccc2c1[nH]c1cc(Br)ccc12 [OPACALINE A]"
  tgt: "Plasmodium falciparum"
  units of measure: "µM"
  recorded number: 2.5
- molecule: "N=C(N)NCCCCc1nccc2c3ccc(Br)cc3n(O)c12 [OPACALINE B]"
  tgt: "Plasmodium falciparum"
  units of measure: "µM"
  recorded number: 4.5

Where do these numbers come from? They come from ChEMBL document CHEMBL1821712.
